Tested on: M14
Assay: NCI tumour cell line growth inhibition, 48 h
The source made the active and inactive calls. Cut-off read from the data, not from the text of the source: active = GI50 up to about 1.1 µM and inactive = higher.
A correct response names exactly one class from active, inactive

Inquiry: I'd appreciate the recorded outcome for CC(N)Cc1ccc(Cl)c(Cl)c1 (stereo unspecified) from this test.
Reply text: inactive

Inquiry: I'd appreciate the recorded outcome for N#CC(C#N)=C1CCC2C(=C(C#N)C#N)CCC12 (stereo unspecified) from this test.
Reply text: inactive

Inquiry: I'd appreciate the recorded outcome for `COC(=O)[C@@H]1CN(C(=O)c2ccccc2)C(=O)N1C(=O)OCc1ccccc1` from this test.
Reply text: inactive

Inquiry: I'd appreciate the recorded outcome for `Clc1cccc(Cl)c1C(Nc1nncs1)Nc1nncs1` from this test.
Reply text: inactive

Inquiry: I'd appreciate the recorded outcome for O=C1CC(S(=O)(=O)O)C=C1Nc1cccc(Cl)c1 (stereo unspecified) from this test.
Reply text: inactive

Inquiry: I'd appreciate the recorded outcome for `CCOC(=O)c1ccc(/N=C\c2ccc(N(CCC#N)CCC#N)cc2)cc1` from this test.
Reply text: inactive

Inquiry: I'd appreciate the recorded outcome for `O=C1/C(=N\n2c(S)nnc2-c2ccncc2)c2cc(Cl)ccc2N1CN1CCCCC1` from this test.
Reply text: inactive

Inquiry: I'd appreciate the recorded outcome for `COc1ccc(Nc2cnc3cc(N)ccc3n2)cc1OC` from this test.
Reply text: inactive

Inquiry: I'd appreciate the recorded outcome for `C[C@]12CC[C@H]3[C@@H](CC=C4C[C@@H](N5CCCC5)CC[C@@]43C)[C@@H]1C/C(=C\c1ccc([N+](=O)[O-])cc1)[C@@H]2O` from this test.
Reply text: inactive

Inquiry: I'd appreciate the recorded outcome for `Cc1nc(C(N)=S)sc1C(=O)/C=C/c1c(O)ccc2ccccc12` from this test.
Reply text: inactive

Inquiry: I'd appreciate the recorded outcome for C[C@@H]1C(=O)O[C@@H]2C[C@@]1(C)[C@@H]1C(=O)C3(O)OC14C2(C)OC(=O)[C@@]4(O)CCC1C3C(O)C=C2CC=CC(=O)[C@@]21C (stereo partly specified) from this test.
Reply text: inactive

Inquiry: I'd appreciate the recorded outcome for `N#CCCN(CCC#N)c1ccc(/C=C2\N=C(c3ccccc3)N(c3ccc(C(=O)O)cc3)C2=O)cc1` from this test.
Reply text: inactive

Inquiry: I'd appreciate the recorded outcome for O=C(O)C(SC(=S)c1ccc(C(=S)SC(C(=O)O)c2ccccc2)cc1)c1ccccc1 (stereo unspecified) from this test.
Reply text: inactive

Inquiry: I'd appreciate the recorded outcome for `CN(C)NC(=S)NC12CC3CC(CC(C3)C1)C2` from this test.
Reply text: inactive

Inquiry: I'd appreciate the recorded outcome for `C=C(C)[C@H]1C2=CC(C)=C(O2)[C@@H](O[C@@H]2c3oc(cc3C)[C@H](C(=C)C)[C@H]3C=C(CC[C@H]2C(=C)C)C(=O)O3)[C@H](C(=C)C)CCC2=C[C@H]1OC2=O` from this test.
Reply text: inactive

Inquiry: I'd appreciate the recorded outcome for `CC(=O)Oc1ccc2c(c1)O/C(=C\c1ccc(N(C)C)cc1)C2=O` from this test.
Reply text: inactive

Inquiry: I'd appreciate the recorded outcome for `CC(C)N1[C@@H]2CCCC[C@H]2N(C(C)C)[PH]1=O` from this test.
Reply text: inactive

Inquiry: I'd appreciate the recorded outcome for `NC1=NNC(=O)c2nnc3c(C(=O)O)cnn3c2S1` from this test.
Reply text: inactive

Inquiry: I'd appreciate the recorded outcome for CC1C(c2ccccc2O)c2cc3c(cc2OC1N1CCOCC1)OCO3 (stereo unspecified) from this test.
Reply text: inactive

Inquiry: I'd appreciate the recorded outcome for `c1ccc2c(c1)Nc1ccccc1[P+]21c2ccccc2Nc2ccccc21` from this test.
Reply text: active

Inquiry: I'd appreciate the recorded outcome for CN1C(=O)N(C)C2(CCN(CC(CC3OCCO3)c3ccc(F)cc3)CC2)C1=O (stereo unspecified) from this test.
Reply text: inactive

Inquiry: I'd appreciate the recorded outcome for `Cc1nc(Nc2ccccc2)sc1C(=O)CC(=O)C(=O)Nc1c(C(C)C)cccc1C(C)C` from this test.
Reply text: inactive

Inquiry: I'd appreciate the recorded outcome for CC(=O)OCC1OC(n2c(=O)n(-c3ccccc3)c(=O)c3ccccc32)C(OC(C)=O)C(OC(C)=O)C1OC(C)=O (stereo unspecified) from this test.
Reply text: inactive

Inquiry: I'd appreciate the recorded outcome for COC12CCCN1c1ccn(Cc3ccccc3)c(=O)c1C2=O (stereo unspecified) from this test.
Reply text: inactive

Inquiry: I'd appreciate the recorded outcome for `CCCCCCCCCCNCCSSCc1ccc(Cl)cc1` from this test.
Reply text: active

Inquiry: I'd appreciate the recorded outcome for `Cc1ccc(C(=O)Nc2ccc(CP(=O)(O)O)cc2CP(=O)(O)O)cc1NC(=O)c1cccc(NC(=O)Nc2cccc(C(=O)Nc3cc(C(=O)Nc4ccc(CP(=O)(O)O)cc4CP(=O)(O)O)ccc3C)c2)c1` from this test.
Reply text: inactive

Inquiry: I'd appreciate the recorded outcome for N#CC1C[C@@H]2CC3(CCC2CN1C(=O)c1ccccc1)OCCO3 (stereo partly specified) from this test.
Reply text: inactive

Inquiry: I'd appreciate the recorded outcome for `NC(=O)CN(CC(N)=O)C(N)=O` from this test.
Reply text: inactive

Inquiry: I'd appreciate the recorded outcome for `COc1ccc([C@]23CCN4COC[C@@H]([C@H]42)C2(CC3)OCC(C)(C)CO2)cc1OC` from this test.
Reply text: inactive

Inquiry: I'd appreciate the recorded outcome for OC1c2ccccc2CCC1C(O)(C(F)(F)F)C(F)(F)F (stereo unspecified) from this test.
Reply text: inactive

Inquiry: I'd appreciate the recorded outcome for `O=c1c2cc([N+](=O)[O-])ccc2n(Cc2ccccc2)n1Cc1ccccc1` from this test.
Reply text: inactive

Where these numbers come from: ChEMBL document CHEMBL1201862
